# assay_target: human recombinant HDAC6 (Homo sapiens)
# Construct: purchased Calbiochem Inc. 382180
# run_description: HDAC enzyme activity inhibition assay (HDAC Fluorimetric Drug Discovery Kit), HDAC6
# Assay type: biochemical
# settings: HDAC1 vs HDAC6
Exercise: for every item that follows, state its recorded HDAC6 selectivity (fold).

Reference set, count: 2
[[record]]
molecule = "CS(=O)(=O)N1CCC(F)(C(=O)N(Cc2ccc(-c3nnc(C(F)F)o3)cc2F)c2ccccc2)CC1"
assay_target = "human recombinant HDAC6 (Homo sapiens)"
parameter_measured = "HDAC6 selectivity (fold)"
value_measured = "154 fold"

[[record]]
molecule = "CCCCN1CC(N2CC(F)(C(=O)N(Cc3ccc(-c4nnc(C(F)F)o4)cn3)c3ccccc3)C2)C1"
assay_target = "human recombinant HDAC6 (Homo sapiens)"
parameter_measured = "HDAC6 selectivity (fold)"
value_measured = "1,827 fold"


Record HDAC6 selectivity (fold) for all entries; do not skip any.
1. O=C(N(Cc1ccc(-c2nnc(C(F)F)o2)cn1)c1ccccc1)C1(F)CN(C2CCC2)C1
2. CCCC(=O)N1CC(F)(C(=O)N(Cc2ccc(-c3nnc(C(F)F)o3)cn2)c2ccccc2)C1
3. O=C(C1CC1)N1CC(F)(C(=O)N(Cc2ccc(-c3nnc(C(F)F)o3)cn2)c2ccccc2)C1
4. CC(C)N1CCC(F)(C(=O)N(Cc2ccc(-c3nnc(C(F)F)o3)cn2)c2cccc(F)c2)CC1

Data returned:
["1,022 fold", "1,506 fold", "1,400 fold", "1,046 fold"]

Record HDAC6 selectivity (fold) for all entries; do not skip any.
1. O=C(N(Cc1ccc(-c2nnc(C(F)F)o2)cn1)c1cccc(F)c1)C1(F)CN(C2CN(C3CCC3)C2)C1
2. CC(=O)N1CC(F)(C(=O)N(Cc2ccc(-c3nnc(C(F)F)o3)cc2F)c2ccccc2)C1
3. CCN1CC(N2CC(F)(C(=O)N(Cc3ccc(-c4nnc(C(F)F)o4)cn3)c3ccccc3)C2)C1
4. O=C(N(Cc1ccc(-c2nnc(C(F)F)o2)cc1F)c1ccccc1)C1(F)CCNCC1 [Compound 2865, 2,2,2-trifluoroacetate]
5. CN(C)CCCC(=O)N1CC(F)(C(=O)N(Cc2ccc(-c3nnc(C(F)F)o3)cn2)c2cccc(F)c2)C1

Data returned:
1: 1,886 fold; 2: 366 fold; 3: 1,262 fold; 4: 30 fold; 5: 1,992 fold

Record HDAC6 selectivity (fold) for all entries; do not skip any.
1. CC(=O)N1CCC(F)(C(=O)N(Cc2ccc(-c3nnc(C(F)F)o3)cc2F)c2ccccc2)CC1
2. CCCCN1CC(N2CC(F)(C(=O)N(Cc3ccc(-c4nnc(C(F)F)o4)cn3)c3cccc(F)c3)C2)C1
3. CC(C)CN1CCC(N2CC(F)(C(=O)N(Cc3ccc(-c4nnc(C(F)F)o4)cn3)c3ccccc3)C2)CC1
4. CN1CC(F)(C(=O)N(Cc2ccc(-c3nnc(C(F)(F)F)o3)cn2)c2cccc(F)c2)C1

Data returned:
1: 302 fold; 2: 1,420 fold; 3: 1,524 fold; 4: 196 fold

* * *

# assay_target: human recombinant HDAC6 (Homo sapiens, UniProt Q9UBN7)
# Construct: purchased Calbiochem Inc. 382180
# Sequence (Q9UBN7 whole entry): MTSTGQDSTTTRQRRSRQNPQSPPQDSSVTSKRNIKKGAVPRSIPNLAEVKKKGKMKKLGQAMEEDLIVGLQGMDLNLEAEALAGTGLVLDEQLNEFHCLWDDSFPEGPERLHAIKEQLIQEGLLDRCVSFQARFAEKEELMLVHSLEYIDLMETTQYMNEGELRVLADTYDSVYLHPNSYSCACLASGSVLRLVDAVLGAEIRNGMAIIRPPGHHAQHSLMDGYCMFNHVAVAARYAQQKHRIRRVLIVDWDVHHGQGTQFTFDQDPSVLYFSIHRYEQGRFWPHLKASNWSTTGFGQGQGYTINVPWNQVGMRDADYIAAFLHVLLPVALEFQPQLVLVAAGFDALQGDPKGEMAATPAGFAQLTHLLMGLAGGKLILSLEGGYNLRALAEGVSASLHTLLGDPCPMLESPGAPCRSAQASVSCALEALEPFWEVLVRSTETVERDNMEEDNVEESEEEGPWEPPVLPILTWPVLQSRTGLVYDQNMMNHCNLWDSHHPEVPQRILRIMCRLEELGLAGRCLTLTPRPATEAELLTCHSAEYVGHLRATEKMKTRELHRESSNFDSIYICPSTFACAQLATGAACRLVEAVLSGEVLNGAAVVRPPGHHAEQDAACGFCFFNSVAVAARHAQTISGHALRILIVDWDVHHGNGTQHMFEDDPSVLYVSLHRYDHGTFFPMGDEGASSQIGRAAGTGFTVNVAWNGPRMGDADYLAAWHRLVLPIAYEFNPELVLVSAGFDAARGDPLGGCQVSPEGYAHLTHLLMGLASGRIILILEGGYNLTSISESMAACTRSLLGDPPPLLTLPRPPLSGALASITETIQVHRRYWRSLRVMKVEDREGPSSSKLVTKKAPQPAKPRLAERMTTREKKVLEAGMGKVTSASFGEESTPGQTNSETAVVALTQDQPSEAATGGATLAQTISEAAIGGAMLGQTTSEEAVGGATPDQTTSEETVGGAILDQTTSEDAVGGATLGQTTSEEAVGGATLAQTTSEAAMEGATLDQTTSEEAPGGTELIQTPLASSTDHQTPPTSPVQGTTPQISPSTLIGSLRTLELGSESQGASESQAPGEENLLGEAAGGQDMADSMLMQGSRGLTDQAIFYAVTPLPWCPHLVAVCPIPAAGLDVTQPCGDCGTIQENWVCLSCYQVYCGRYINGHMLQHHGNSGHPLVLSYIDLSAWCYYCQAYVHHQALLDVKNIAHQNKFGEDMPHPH
# run_description: HDAC enzyme activity inhibition assay (HDAC Fluorimetric Drug Discovery Kit), HDAC6
# Assay type: biochemical
# settings: human recombinant HDAC6, same protocol as HDAC1
parameter_measured: pIC50
Give bare numbers, as −log10 of the molar value.

[[record]]
molecule = "O=C(N(Cc1ccc(-c2nnc(C(F)F)o2)cn1)c1cccc(F)c1)C1(F)CCN(C2CCC2)CC1 [Compound 2971]"
parameter_measured = "pIC50"
value_measured = 7.17


Record pIC50 for all entries; do not skip any.
1. O=C(N(Cc1ccc(-c2nnc(C(F)F)o2)cn1)c1cccc(F)c1)C1(F)CN(C2CN(C3COC3)C2)C1 [Compound 3395]
2. O=C(N(Cc1ccc(-c2nnc(C(F)F)o2)cn1)c1cccc(F)c1)C1(F)CN(C2CCN(C3CCOCC3)CC2)C1 [Compound 3410]
3. CN1CC(F)(C(=O)N(Cc2ccc(-c3nnc(C(F)F)o3)cc2F)c2ccccc2)C1 [Compound 3429]
4. CCN1CC(N2CC(F)(C(=O)N(Cc3ccc(-c4nnc(C(F)F)o4)cn3)c3cccc(F)c3)C2)C1 [Compound 3220]
5. CCCCN1CC(N2CCC(F)(C(=O)N(Cc3ccc(-c4nnc(C(F)F)o4)cn3)c3cccc(F)c3)CC2)C1 [Compound 3391]
6. CC(C)CN1CCC(N2CC(F)(C(=O)N(Cc3ccc(-c4nnc(C(F)F)o4)cn3)c3ccccc3)C2)CC1 [Compound 3114]
7. O=C(N(Cc1ccc(-c2nnc(C(F)F)o2)cn1)c1cccc(F)c1)C1(F)CN(C2CCN(C3COC3)CC2)C1 [Compound 3406]

Data returned:
[7.44, 7.59, 7.13, 7.41, 7.68, 7.48, 7.44]

Record pIC50 for all entries; do not skip any.
1. CC(CO)N1CC(F)(C(=O)N(Cc2ccc(-c3nnc(C(F)F)o3)cn2)c2cccc(F)c2)C1 (stereo not shown) [Compound 3094]
2. O=C(N(Cc1ccc(-c2nnc(C(F)F)o2)cn1)c1ccccc1)C1(F)CCN(C2CC3(COC3)C2)CC1 [Compound 2995]
3. CN1CCC(N2CC(F)(C(=O)N(Cc3ccc(-c4nnc(C(F)F)o4)cn3)c3ccccc3)C2)CC1 [Compound 3110]
4. O=C(N(Cc1ccc(-c2nnc(C(F)F)o2)cn1)c1cccc(F)c1)C1(F)CN(C2CN(C3CCCC3)C2)C1 [Compound 3396]
5. CC(C)(C)OC(=O)N1CC(F)(C(=O)N(Cc2ccc(-c3nnc(C(F)(F)F)o3)cn2)c2cccc(F)c2)C1 [Compound 6890]
6. CC(C)CN1CCC(N2CC(F)(C(=O)N(Cc3ccc(-c4nnc(C(F)F)o4)cn3)c3cccc(F)c3)C2)CC1 [Compound 3403]

Data returned:
[7.58, 7.08, 7.37, 7.71, 6.06, 7.54]

Record pIC50 for all entries; do not skip any.
1. O=C(N(Cc1ccc(-c2nnc(C(F)F)o2)cn1)c1cccc(F)c1)C1(F)CN(C2CCN(C3CCCCC3)CC2)C1 [Compound 3409]
2. CCN1CCC(F)(C(=O)N(Cc2ccc(-c3nnc(C(F)F)o3)cn2)c2cccc(F)c2)CC1 [Compound 3443]

Data returned:
1: 7.48; 2: 7.29

Record pIC50 for all entries; do not skip any.
1. O=C(N(Cc1ccc(-c2nnc(C(F)F)o2)cn1)c1cccc(F)c1)C1(F)CN(C2CN(C3CCC3)C2)C1 [Compound 3394]
2. CCCCN1CC(N2CC(F)(C(=O)N(Cc3ccc(-c4nnc(C(F)F)o4)cn3)c3cccc(F)c3)C2)C1 [Compound 3222]
3. O=C(N(Cc1ccc(-c2nnc(C(F)F)o2)cn1)c1cccc(F)c1)C1(F)CN(C2CN(C3CCCCC3)C2)C1 [Compound 3398]

Data returned:
1: 7.58; 2: 7.45; 3: 7.70

Record pIC50 for all entries; do not skip any.
1. CS(=O)(=O)N1CCC(F)(C(=O)N(Cc2ccc(-c3nnc(C(F)F)o3)cc2F)c2ccccc2)CC1 [Compound 3442]
2. CC(C)CC(=O)N1CC(F)(C(=O)N(Cc2ccc(-c3nnc(C(F)F)o3)cn2)c2ccccc2)C1 [Compound 3155]
3. CCN1CCC(N2CC(F)(C(=O)N(Cc3ccc(-c4nnc(C(F)F)o4)cn3)c3cccc(F)c3)C2)CC1 [Compound 3400]
4. CN(C)CCCC(=O)N1CC(F)(C(=O)N(Cc2ccc(-c3nnc(C(F)F)o3)cn2)c2cccc(F)c2)C1 [Compound 3098]
5. CN1CC(F)(C(=O)N(Cc2ccc(-c3nnc(C(F)(F)F)o3)cn2)c2cccc(F)c2)C1 [Compound 6891]
6. CCCCN1CCC(N2CC(F)(C(=O)N(Cc3ccc(-c4nnc(C(F)F)o4)cn3)c3ccccc3)C2)CC1 [Compound 3113]
7. CN(C)CCCC(=O)N1CC(F)(C(=O)N(Cc2ccc(-c3nnc(C(F)F)o3)cn2)c2ccccc2)C1 [Compound 3007]

Data returned:
1: 6.49; 2: 7.42; 3: 7.67; 4: 7.60; 5: 6.59; 6: 7.49; 7: 7.59

Record pIC50 for all entries; do not skip any.
1. CC(=O)N1CC(F)(C(=O)N(Cc2ccc(-c3nnc(C(F)F)o3)cc2F)c2ccccc2)C1 [Compound 3432]
2. O=C(N(Cc1ccc(-c2nnc(C(F)F)o2)cc1F)c1ccccc1)C1(F)CCNCC1 [Compound 2865, 2,2,2-trifluoroacetate]

Data returned:
1. 7.10
2. 6.00

* * *

Exercise: for every item that follows, state its recorded pIC50.
# assay_target: human recombinant HDAC1 (Homo sapiens, UniProt Q13547)
# Sequence (Q13547 whole entry): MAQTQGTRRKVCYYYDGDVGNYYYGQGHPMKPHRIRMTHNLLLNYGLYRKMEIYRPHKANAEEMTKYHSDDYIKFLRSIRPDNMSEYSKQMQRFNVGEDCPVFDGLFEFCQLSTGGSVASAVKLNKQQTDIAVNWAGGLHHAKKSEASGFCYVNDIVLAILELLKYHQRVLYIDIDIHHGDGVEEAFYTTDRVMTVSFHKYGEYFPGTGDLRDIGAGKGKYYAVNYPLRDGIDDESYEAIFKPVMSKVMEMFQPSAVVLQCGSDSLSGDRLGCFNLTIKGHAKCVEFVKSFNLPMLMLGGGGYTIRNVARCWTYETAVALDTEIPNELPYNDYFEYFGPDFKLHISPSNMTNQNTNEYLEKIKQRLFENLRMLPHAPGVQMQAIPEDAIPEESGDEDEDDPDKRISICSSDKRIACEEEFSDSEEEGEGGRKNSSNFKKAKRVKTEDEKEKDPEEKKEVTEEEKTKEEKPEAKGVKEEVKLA
# run_description: HDAC enzyme activity inhibition assay (HDAC Fluorimetric Drug Discovery Kit), HDAC1
# settings: human recombinant HDAC1, Fluor de Lys-SIRT1 substrate, 30° C. 60 minutes
pIC50: −log10 of the molar value.

Record pIC50 for all entries; do not skip any.
1. CCCN1CC(F)(C(=O)N(Cc2ccc(-c3nnc(C(F)F)o3)cn2)c2ccccc2)C1
2. O=C(N(Cc1ccc(-c2nnc(C(F)F)o2)cn1)c1cccc(F)c1)C1(F)CN(C2CCN(C3CCC3)CC2)C1
3. O=C(N(Cc1ccc(-c2nnc(C(F)F)o2)cn1)c1cccc(F)c1)C1(F)CN(C2CCN(C3COC3)CC2)C1

Data returned:
1. < 4.30
2. 4.69
3. 4.58

Record pIC50 for all entries; do not skip any.
1. CCN1CCC(N2CC(F)(C(=O)N(Cc3ccc(-c4nnc(C(F)F)o4)cn3)c3ccccc3)C2)CC1
2. O=C(C1CCCC1)N1CC(F)(C(=O)N(Cc2ccc(-c3nnc(C(F)F)o3)cn2)c2ccccc2)C1
3. CS(=O)(=O)N1CCC(F)(C(=O)N(Cc2ccc(-c3nnc(C(F)F)o3)cc2F)c2ccccc2)CC1
4. O=C(C1CCCC1)N1CC(F)(C(=O)N(Cc2ccc(-c3nnc(C(F)F)o3)cn2)c2cccc(F)c2)C1

Data returned:
1: < 4.30; 2: < 4.30; 3: < 4.30; 4: < 4.30

Attribution: patent US20230278995A1
